TGT: UniProt P16234
Sequence (P16234 24-1089, species assumed): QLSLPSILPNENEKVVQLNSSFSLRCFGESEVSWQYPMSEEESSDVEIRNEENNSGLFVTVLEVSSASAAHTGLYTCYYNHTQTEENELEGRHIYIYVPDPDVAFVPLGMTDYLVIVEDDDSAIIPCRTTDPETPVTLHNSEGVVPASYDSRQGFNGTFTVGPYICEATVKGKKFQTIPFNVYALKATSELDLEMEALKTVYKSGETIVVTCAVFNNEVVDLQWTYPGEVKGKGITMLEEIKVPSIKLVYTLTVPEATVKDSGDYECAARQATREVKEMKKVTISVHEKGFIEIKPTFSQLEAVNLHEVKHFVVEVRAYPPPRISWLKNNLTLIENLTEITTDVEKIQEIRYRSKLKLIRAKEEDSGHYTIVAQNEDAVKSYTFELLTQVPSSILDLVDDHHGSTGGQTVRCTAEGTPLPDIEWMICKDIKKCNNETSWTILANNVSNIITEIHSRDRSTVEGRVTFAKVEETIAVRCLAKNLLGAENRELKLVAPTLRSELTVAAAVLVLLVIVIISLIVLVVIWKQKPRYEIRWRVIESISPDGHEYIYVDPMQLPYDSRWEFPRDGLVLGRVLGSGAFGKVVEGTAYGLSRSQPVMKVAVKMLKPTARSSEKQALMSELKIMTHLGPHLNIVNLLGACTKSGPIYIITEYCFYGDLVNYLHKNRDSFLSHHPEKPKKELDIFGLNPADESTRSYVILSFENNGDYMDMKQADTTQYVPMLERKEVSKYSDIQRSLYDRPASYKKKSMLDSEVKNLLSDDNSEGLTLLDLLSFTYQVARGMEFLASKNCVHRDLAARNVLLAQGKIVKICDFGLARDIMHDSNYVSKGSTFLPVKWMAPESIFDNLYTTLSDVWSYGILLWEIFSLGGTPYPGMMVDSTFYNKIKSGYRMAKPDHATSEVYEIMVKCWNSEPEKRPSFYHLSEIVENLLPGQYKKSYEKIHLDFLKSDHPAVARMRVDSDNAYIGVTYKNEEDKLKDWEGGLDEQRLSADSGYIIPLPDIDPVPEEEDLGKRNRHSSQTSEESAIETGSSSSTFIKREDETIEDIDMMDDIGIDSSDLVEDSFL
METHOD_DESCRIPTION: In vitro kinase assay, recombinant PDGFR α
TEST_CONDITIONS: 33P-ATP, 120 min
PROPERTY: IC50 (nM)
Reply with just the number (in nM).

- COMPOUND: "CNCCO/N=C1/C(=C2/C(=O)Nc3ccc(Br)cc32)Nc2ccccc21 [5IN-1NH1s]"
  UNIT_TAG: "nM"
  IC50: 72.2

Now look at this entry.
**Q:** Could you share which IC50 value was measured for O=C1Nc2ccc(Br)cc2C1=C1Nc2ccccc2C1=NOCCN1CCNCC1 [Compound (1289)] ?
**A:** 13.6

Source listed as patent US11964941B2.
